Values compiled from patent US20240124444A1.

Test system: C. parvum strain UGA1
Experiment: C. parvum growth inhibition assay (Nluc luminescence in HCT-8 cells)
Type: cell-based, Cryptosporidium parvum
Conditions: Cryptosporidium parvum, HCT-8, 48 h, C. parvum growth inhibition in HCT-8 cells, 48 hours, 6 concentrations 10-0.04 μM
Provide the reported EC50 of each item.

COMPOUND	SYSTEM	RECORDED_RESULT
FC(F)(F)CNc1nccc(-c2cc3cnc(NC4CCOC4)cc3[nH]2)n1 (stereo in doubt) [Example 374]	C. parvum strain UGA1	0.5 to 1 µM
Cn1cc(-c2cc3cnc(Nc4ccccc4)cc3n2C)cn1 [Example 70]	C. parvum strain UGA1	> 1 µM
FC(F)(F)CNc1nccc(-c2cc3cnc(NC4CCC4)cc3[nH]2)n1 [Example 373]	C. parvum strain UGA1	0.5 to 1 µM
CNc1cc2c(cn1)cc(-c1ccnc(NCC(F)(F)F)n1)n2C [Example 390]	C. parvum strain UGA1	> 1 µM
Cc1cc(-c2cc3cnc(NC(=O)C4(C)CC4)cc3[nH]2)ccn1 [Example 95]	C. parvum strain UGA1	> 1 µM
Cn1cc(C(=O)Nc2cc3[nH]c(CCCO)cc3cn2)cn1 [Example 89]	C. parvum strain UGA1	> 1 µM
CC(C)C(=O)Nc1cc2[nH]c(-c3ccncc3)cc2cn1 [Example 78]	C. parvum strain UGA1	> 1 µM
Cc1cc(-c2cc3cnc(N)cc3n2C)ncn1 [Example 125]	C. parvum strain UGA1	> 1 µM
c1cc(-c2cc3cnc(NC4CCOCC4)cc3[nH]2)ccn1 [Example 353]	C. parvum strain UGA1	< 0.5 µM
O=C(Nc1cc2[nH]c(-c3ccnc(C(F)(F)F)n3)cc2cn1)[C@H]1C[C@H](O)C1 [Example 92]	C. parvum strain UGA1	> 1 µM

Batch request: EC50 for each of the following compounds.
1. Cn1ccc(-c2cc3cnc(NC(=O)C4CC4)cc3n2C)n1 [Example 345]
2. COc1nccc(-c2cc3cnc(NC(=O)C4CC4)cc3n2CCO)n1 [Example 343]
3. Cn1cnc(-c2cc3cnc(NC(=O)C4CC4)cc3[nH]2)n1 [Example 65]
4. Cn1c(-c2ccnc(NCC(F)(F)F)c2)cc2cnc(NC3CCOCC3)cc21 [Example 382]
5. Cn1cc(C(=O)Nc2cc3c(cn2)cc(-c2ccnc(NCC(F)(F)F)n2)n3CCO)cn1 [Example 80]
6. Cc1cc(-c2cc3cnc(NC(=O)C4CCC4)cc3[nH]2)ncn1 [Example 98]
7. Cc1cc(-c2cc3cnc(NC4CCOCC4)cc3[nH]2)nc(C)n1 [Example 393]

1. > 1 µM
2. > 1 µM
3. > 1 µM
4. > 1 µM
5. > 1 µM
6. > 1 µM
7. > 1 µM

Batch request: EC50 for each of the following compounds.
1. Cc1ccccc1-c1cc2cnc(NC3CCOCC3)cc2[nH]1 [Example 357]
2. Cc1cc(-c2[nH]c3cc(NC4CCOC4)ncc3c2C)ccn1 (stereo in doubt) [Example 367]

> 1 µM
> 1 µM

----------
Provide the reported inhibition at 1 µM of each item.
System: C. parvum strain UGA1
Assay: C. parvum growth inhibition assay (Nluc luminescence in HCT-8 cells)
Assay type: cell-based, Cryptosporidium parvum
Conditions: Cryptosporidium parvum, HCT-8; single point inhibition at 1 uM; read-out: % inh @ 1 uM C. parvum

COMPOUND	MEASURED_METRIC	RECORDED_RESULT
C[C@H]1C[C@@H]1C(=O)Nc1cc2[nH]c(-c3ccnc(C(F)(F)F)n3)cc2cn1 (stereo in doubt) [Example 262]	inhibition at 1 µM	0 to 33%

Batch request: inhibition at 1 µM for each of the following compounds.
1. O=C(Nc1cc2[nH]c(-c3ccnc(OCC(F)F)n3)cc2cn1)c1cnn(CC2CCCO2)c1 (stereo in doubt) [Example 234]
2. Cn1cc(C(=O)Nc2cc3[nH]c(-c4cccnc4)cc3cn2)cn1 [Example 332]

1: 33 to 66%; 2: 0 to 33%

Recorded inhibition at 1 µM for Cc1cc(-c2cc3cnc(NC(=O)c4cnn(C5CCOC5)c4)cc3[nH]2)ccn1 (stereo not shown) [Example 236] with C. parvum strain UGA1, please? 33 to 66%
